Each entry below carries its recorded ABSORPTION, BASE MAXIMUM.
- Method Description: absorption spectra (maxima and extinction coefficients) of benzo[c]xanthene dyes
- Format: physicochemical
- Condition Context: base form
Response body: numeric value in NM, unit text excluded.

>  <Compound>
O=C(O)c1ccc2c(c1)C1(OC2=O)c2cc(Cl)c(O)cc2Oc2c1ccc1cc(O)ccc21 (stereo not shown)

>  <Measurement Label>
ABSORPTION, BASE MAXIMUM

>  <Test Value>
547

$$$$
>  <Compound>
CCN(CC)c1ccc2c(c1)Oc1c(ccc3cc(O)ccc13)C21OC(=O)c2ccc(C(=O)O)cc21 (stereo not shown)

>  <Measurement Label>
ABSORPTION, BASE MAXIMUM

>  <Test Value>
577

$$$$
>  <Compound>
O=C1OC2(c3ccc(O)cc3Oc3c2ccc2cc(O)ccc32)c2ccccc21 (stereo not shown)

>  <Measurement Label>
ABSORPTION, BASE MAXIMUM

>  <Test Value>
537

$$$$

State the recorded ABSORPTION, BASE MAXIMUM for this entry: CCN(CC)c1ccc2c(c1)Oc1c(ccc3cc(O)ccc13)C21OC(=O)c2ccccc21 (stereo not shown)
577
